Each record here notes measured total protein half-life in vivo.
# procedure_text: total protein half-life in vivo (active degradation + dilution); higher = more stable protein
# experimental_parameters: wild type E. coli NCM3722; growth: C-lim chemostat; doubling time 3 h
measurement_kind: total protein half-life in vivo (h)

INSERT INTO results (residue_codes, scale_unit, test_value) VALUES
  ('MYHDVSYLLSRLINGPLSLRQIYFASSNGPVPDLAYQVDFPRLEIVLEGEFVDTGAGATLVPGDVLYVPAGGWNFPQWQAPATTFSVLFGKQQLGFSVVQWDGKQYQNLAKQHVARRGPRIGSFLLQTLNEMQMQPQEQQTARLIVASLLSHCRDLLGSQIQTASRSQALFEAIRDYIDERYASALTRESVAQAFYISPNYLSHLFQKTGAIGFNEYLNHTRLEHAKTLLKGYDLKVKEVAHACGFVDSNYFCRLFRKNTERSPSEYRRQYHSQLTEKPTTPE', 'h', 2.6),
  ('MAISIKGVNTGVIRKSNNFIALALKIKEPRNKESLFFMSVMELRDLLIALESRLHQKHKLDAAAHLQYEQARDKVIKKMAENIPEILVDELKNADINRRVNTLELTDNQGENLTFVLTLHDGSKCELVVNELQIEMLARAIIHAINNAEMRELALRITSLLDFLPLYDVDCQDNGNLEYDTYSQPEWKHNLFDHYLAVLYRFKDESGKEQFSGAVVKTREATPGKEIEAITRRMLDFSPRLKKLAGVPCQVYVRTVAANNAQPLTQDQCLRALHHLRVQSTSKTAPQAK', 'h', 2.52),
  ('MLINIGRLLMLCVWGFLILNLVHPFPRPLNIFVNVALIFTVLMHGMQLALLKSTLPKDGPQMTTAEKVRIFLFGVFELLAWQKKFKVKK', 'h', 3.25);

###

# procedure_text: total protein half-life in vivo (active degradation + dilution); higher = more stable protein
# experimental_parameters: wild type E. coli NCM3722; growth: C-lim chemostat; doubling time 6 h
Each record here notes measured total protein half-life in vivo.
measurement_kind: total protein half-life in vivo (h)

INSERT INTO measurements (residue_codes, measurement_kind, scale_unit, test_value) VALUES
  ('MRIGHGFDVHAFGGEGPIIIGGVRIPYEKGLLAHSDGDVALHALTDALLGAAALGDIGKLFPDTDPAFKGADSRELLREAWRRIQAKGYTLGNVDVTIIAQAPKMLPHIPQMRVFIAEDLGCHMDDVNVKATTTEKLGFTGRGEGIACEAVALLIKATK', 'total protein half-life in vivo', 'h', 6.85),
  ('MKKLITANDIREAHARGEQAMSVVLRASIITPEAREVADLLGFTITECDESIPVTASVPASVPADKTESQRIRETIIAQLPEGQFTESLVAQLMEKVMKEKQSLEQGAMQPSFKSVTGKGGIKVIDGSSVKFGRFDGAEPHCVGLTDLVTGDDGSSMAAGFMQWENAFFPWTLNYDEIDMVLEGELHVRHEGQTMIAKAGDVMFIPKGSSIEFGTTSSVKFLYVAWPANWQSL', 'total protein half-life in vivo', 'h', 4.18),
  ('MQNRLTIKDIARLSGVGKSTVSRVLNNESGVSQLTRERVEAVMNQHGFSPSRSARAMRGQSDKVVAIIVTRLDSLSENLAVQTMLPAFYEQGYDPIMMESQFSPQLVAEHLGVLKRRNIDGVVLFGFTGITEEMLAHWQSSLVLLARDAKGFASVCYDDEGAIKILMQRLYDQGHRNISYLGVPHSDVTTGKRRHEAYLAFCKAHKLHPVAALPGLAMKQGYENVAKVITPETTALLCATDTLALGASKYLQEQRIDTLQLASVGNTPLMKFLHPEIVTVDPGYAEAGRQAACQLIAQVTGRSEPQQIIIPATLS', 'total protein half-life in vivo', 'h', 5.6);

###

# procedure_text: total protein half-life in vivo (active degradation + dilution); higher = more stable protein
# experimental_parameters: E. coli NCM3722 delta-hslV; growth: N-lim chemostat; doubling time 6 h
measurement_kind: total protein half-life in vivo (h)

INSERT INTO results (residue_codes, comparison_sign, test_value) VALUES
  ('MNKHTEHDTREHLLATGEQLCLQRGFTGMGLSELLKTAEVPKGSFYHYFRSKEAFGVAMLERHYAAYHQRLTELLQSGEGNYRDRILAYYQQTLNQFCQHGTISGCLTVKLSAEVCDLSEDMRSAMDKGARGVIALLSQALENGRENHCLTFCGEPLQQAQVLYALWLGANLQAKISRSFEPLENALAHVKNIIATPAV', '>', 8),
  ('MQKIVIVANGAPYGSESLFNSLRLAIALREQESNLDLRLFLMSDAVTAGLRGQKPGEGYNIQQMLEILTAQNVPVKLCKTCTDGRGISTLPLIDGVEIGTLVELAQWTLSADKVLTF [P0AB52]', '=', 4.94),
  ('MIELVIVSRLLEYPDAALWQHQQEMFEAIAASKNLPKEDAHALGIFLRDLTTMDPLDAQAQYSELFDRGRATSLLLFEHVHGESRDRGQAMVDLLAQYEQHGLQLNSRELPDHLPLYLEYLAQLPQSEAVEGLKDIAPILALLSARLQQRESRYAVLFDLLLKLANTAIDSDKVAEKIADEARDDTPQALDAVWEEEQVKFFADKGCGDSAITAHQRRFAGAVAPQYLNITTGGQH [P0AF26]', '=', 0.814),
  ('MANWLNQLQSLLGQSSSSTSSSADQGLVKLLVPGALGGLAGLLVANKSARKLLTKYGTNALLVGGGAVAGTVLWNKYKDKIRAAHQDEPQFGAQSTPLDERTARLILALVFAAKSDGHIDAKERAAIDQQLRGAGVEEQGRVLIEQAIEQPLDPQRLATGVRNEEEALEIYFLSCAAIDIDHFMERSYLNALGDALKIPQDVRDGIERDLEQQKRTLAE', '=', 3.74),
  ('MANPTVIKLQDGNVMPQLGLGVWQASNEEVITAIQKALEVGYRSIDTAAAYKNEEGVGKALKNASVNREELFITTKLWNDDHKRPREALLDSLKKLQLDYIDLYLMHWPVPAIDHYVEAWKGMIELQKEGLIKSIGVCNFQIHHLQRLIDETGVTPVINQIELHPLMQQRQLHAWNATHKIQTESWSPLAQGGKGVFDQKVIRDLADKYGKTPAQIVIRWHLDSGLVVIPKSVTPSRIAENFDVWDFRLDKDELGEIAKLDQGKRLGPDPDQFGG', '=', 5.36),
  ('MNDAIPRPQAKTRKALTPLLEIRNLTKSYDGQHAVDDVSLTIYKGEIFALLGASGCGKSTLLRMLAGFEQPSAGQIMLDGVDLSQVPPYLRPINMMFQSYALFPHMTVEQNIAFGLKQDKLPKAEIASRVNEMLGLVHMQEFAKRKPHQLSGGQRQRVALARSLAKRPKLLLLDEPMGALDKKLRDRMQLEVVDILERVGVTCVMVTHDQEEAMTMAGRIAIMNRGKFVQIGEPEEIYEHPTTRYSAEFIGSVNVFEGVLKERQEDGLVLDSPGLVHPLKVDADASVVDNVPVHVALRPEKIMLCEEPPANGCNFAVGEVIHIAYLGDLSVYHVRLKSGQMISAQLQNAHRHRKGLPTWGDEVRLCWEVDSCVVLTV', '=', 5.74);

###

# procedure_text: total protein half-life in vivo (active degradation + dilution); higher = more stable protein
# experimental_parameters: wild type E. coli NCM3722; growth: C-lim chemostat; doubling time 12 h
measurement_kind: total protein half-life in vivo (h)

INSERT INTO assay_data (residue_codes, measurement_kind, scale_unit, test_value) VALUES
  ('MMKRNILAVIVPALLVAGTANAAEIYNKDGNKVDLYGKAVGLHYFSKGNGENSYGGNGDMTYARLGFKGETQINSDLTGYGQWEYNFQGNNSEGADAQTGNKTRLAFAGLKYADVGSFDYGRNYGVVYDALGYTDMLPEFGGDTAYSDDFFVGRVGGVATYRNSNFFGLVDGLNFAVQYLGKNERDTARRSNGDGVGGSISYEYEGFGIVGAYGAADRTNLQEAQPLGNGKKAEQWATGLKYDANNIYLAANYGETRNATPITNKFTNTSGFANKTQDVLLVAQYQFDFGLRPSIAYTKSKAKDVEGIGDVDLVNYFEVGATYYFNKNMSTYVDYIINQIDSDNKLGVGSDDTVAVGIVYQF', 'total protein half-life in vivo', 'h', 11.1);

###

# procedure_text: total protein half-life in vivo (active degradation + dilution); higher = more stable protein
# experimental_parameters: wild type E. coli NCM3722; growth: P-lim chemostat; doubling time 6 h
Each record here notes measured total protein half-life in vivo.
measurement_kind: total protein half-life in vivo

INSERT INTO results (residue_codes, test_value) VALUES
  ('MIKLSNITKVFHQGTRTIQALNNVSLHVPAGQIYGVIGASGAGKSTLIRCVNLLERPTEGSVLVDGQELTTLSESELTKARRQIGMIFQHFNLLSSRTVFGNVALPLELDNTPKDEVKRRVTELLSLVGLGDKHDSYPSNLSGGQKQRVAIARALASNPKVLLCDEATSALDPATTRSILELLKDINRRLGLTILLITHEMDVVKRICDCVAVISNGELIEQDTVSEVFSHPKTPLAQKFIQSTLHLDIPEDYQERLQAEPFTDCVPMLRLEFTGQSVDAPLLSETARRFNVNNNIISAQMDYAGGVKFGIMLTEMHGTQQDTQAAIAWLQEHHVKVEVLGYV', '6.3 h'),
  ('MVELKEPLATLWRGKDAFAEVKKLNGEVFRELETRRTLRFELSGKSYFLKWHKGTTLKEIIKNLLSLRMPVLGADREWHAIHRLSDVGVDTMKGIGFGEKGLNPLTRASFIITEDLTPTISLEDYCADWAVNPPDIRVKRMLIARVATMVRKMHTAGINHRDCYICHFLLHLPFTGREDELKISVIDLHRAQIRAKVPRRWRDKDLIGLYFSSMNIGLTQRDIWRFMKVYFGMPLRKILSLEQNLLNMASVKAERIKERTQRKGL', '5.94 h'),
  ('MVEDILAPGLRVVFCGINPGLSSAGTGFPFAHPANRFWKVIYQAGFTDRQLKPQEAQHLLDYRCGVTKLVDRPTVQANEVSKQELHAGGRKLIEKIEDYQPQALAILGKQAYEQGFSQRGAQWGKQTLTIGSTQIWVLPNPSGLSRVSLEKLVEAYRELDQALVVRGR [P0A9H1]', '5.74 h'),
  ('MKDKVYKRPVSILVVIYAQDTKRVLMLQRRDDPDFWQSVTGSVEEGETAPQAAMREVKEEVTIDVVAEQLTLIDCQRTVEFEIFSHLRHRYAPGVTRNTESWFCLALPHERQIVFTEHLAYKWLDAPAAAALTKSWSNRQAIEQFVINAA [P0AFC0]', '2.75 h'),
  ('MALPILLDCDPGHDDAIAIVLALASPELDVKAITSSAGNQTPEKTLRNVLRMLTLLNRTDIPVAGGAVKPLMRELIIADNVHGESGLDGPALPEPTFAPQNCTAVELMAKTLRESAEPVTIVSTGPQTNVALLLNSHPELHSKIARIVIMGGAMGLGNWTPAAEFNIYVDPEAAEIVFQSGIPVVMAGLDVTHKAQIHVEDTERFRAIGNPVSTIVAELLDFFLEYHKDEKWGFVGAPLHDPCTIAWLLKPELFTSVERWVGVETQGKYTQGMTVVDYYYLTGNKPNATVMVDVDRQGFVDLLADRLKFYA', '5.52 h'),
  ('MHGNSEMQKINQTSAMPEKTDVHWSGRFSVAPMLDWTDRHCRYFLRLLSRNTLLYTEMVTTGAIIHGKGDYLAYSEEEHPVALQLGGSDPAALAQCAKLAEARGYDEINLNVGCPSDRVQNGMFGACLMGNAQLVADCVKAMRDVVSIPVTVKTRIGIDDQDSYEFLCDFINTVSGKGECEMFIIHARKAWLSGLSPKENREIPPLDYPRVYQLKRDFPHLTMSINGGIKSLEEAKAHLQHMDGVMVGREAYQNPGILAAVDREIFGSSDTDADPVAVVRAMYPYIERELSQGTYLGHITRHMLGLFQGIPGARQWRRYLSENAHKAGADINVLEHALKLVADKR', '6.57 h'),
  ('MTEPLKPRIDFDGPLEVDQNPKFRAQQTFDENQAQNFAPATLDEAQEEEGQVEAVMDAALRPKRSLWRKMVMGGLALFGASVVGQGVQWTMNAWQTQDWVALGGCAAGALIIGAGVGSVVTEWRRLWRLRQRAHERDEARDLLHSHGTGKGRAFCEKLAQQAGIDQSHPALQRWYASIHETQNDREVVSLYAHLVQPVLDAQARREISRSAAESTLMIAVSPLALVDMAFIAWRNLRLINRIATLYGIELGYYSRLRLFKLVLLNIAFAGASELVREVGMDWMSQDLAARLSTRAAQGIGAGLLTARLGIKAMELCRPLPWIDDDKPRLGDFRRQLIGQVKETLQKGKTPSEK [P0A8R7]', '5.02 h'),
  ('MRYPVTLTPAPEGGYMVSFVDIPEALTQGETVAEAMEAAKDALLTAFDFYFEDNELIPLPSPLNSHDHFIEVPLSVASKVLLLNAFLQSEITQQELARRIGKPKQEITRLFNLHHATKIDAVQLAAKALGKELSLVMV', '1.45 h'),
  ('MTHFSQQDNFSVAARVLGALFYYAPESAEAAPLVAVLTSDGWETQWPLPEASLAPLVTAFQTQCEETHAQAWQRLFVGPWALPSPPWGSVWLDRESVLFGDSTLALRQWMREKGIQFEMKQNEPEDHFGSLLLMAAWLAENGRQTECEELLAWHLFPWSTRFLDVFIEKAEHPFYRALGELARLTLAQWQSQLLIPVAVKPLFR', '5.41 h'),
  ('MSTEKEKMIAGELYRSADETLSRDRLRARQLIHRYNHSLAEEHTLRQQILADLFGQVTEAYIEPTFRCDYGYNIFLGNNFFANFDCVMLDVCPIRIGDNCMLAPGVHIYTATHPIDPVARNSGAELGKPVTIGNNVWIGGRAVINPGVTIGDNVVVASGAVVTKDVPDNVVVGGNPARIIKKL', '> 8 h'),
  ('MKLTIIRLEKFSDQDRIDLQKIWPEYSPSSLQVDDNHRIYAARFNERLLAAVRVTLSGTEGALDSLRVREVTRRRGVGQYLLEEVLRNNPGVSCWWMADAGVEDRGVMTAFMQALGFTAQQGGWEKC', '5.99 h'),
  ('MGQLIDGVWHDTWYDTKSTGGKFQRSASAFRNWLTADGAPGPTGTGGFIAEKDRYHLYVSLACPWAHRTLIMRKLKGLEPFISVSVVNPLMLENGWTFDDSFPGATGDTLYQNEFLYQLYLHADPHYSGRVTVPVLWDKKNHTIVSNESAEIIRMFNTAFDALGAKAGDYYPPALQTKIDELNGWIYDTVNNGVYKAGFATSQEAYDEAVAKVFESLARLEQILGQHRYLTGNQLTEADIRLWTTLVRFDPVYVTHFKCDKHRISDYLNLYGFLRDIYQMPGIAETVNFDHIRNHYFRSHKTINPTGIISIGPWQDLDEPHGRDVRFG', '5.99 h');
